test: Solubility investigations of the dyes prepared in accordance with Examples 31 to 34; settings: acetonitrile, organic solvent or mixture, Solubility, CH3CN
property: solubility

{"compound": "CC[N+](CC)=c1ccc2nc3c(cc(N)c4ccccc43)oc-2c1 [Nile Blue [B(CF3)4]^−]", "solubility": "> 2000 µg/mL"}

Can you look up the measured solubility of CN(C)c1ccc(C(=C2C=CC(=[N+](C)C)C=C2)c2ccc(N(C)C)cc2)cc1 [Crystal Violet [B(CF3)4]^−] for me? > 5000 µg/mL

###

test: Solubility investigations of the dyes prepared in accordance with Examples 31 to 34; settings: water, Solubility, H2O
property: solubility

If you can, please state the reported solubility value of CC[N+](CC)=c1ccc2nc3c(cc(N)c4ccccc43)oc-2c1 [Nile Blue [B(CF3)4]^−] . < 10 µg/mL

The origin of these recorded values is patent US20080275224A1.
